System: Brachyury (BRA) Protein Expression, TBXT (gene 6862)
protocolNotes: CCTE_Deisenroth_DEVTOX-GLR_Endo_BRA: CCTE's DevTox GLR-Endo Assay Evaluation of Brachyury (BRA) Protein Expression, Deisenroth Lab (AID 2284417)
Active and inactive are the calls of the source. Rule for the calls: active = hit-call score of the fitted dose curve at least 0.9, where 1 is the maximum; inactive = score below 0.9. *1 amine or outer side, *2 acyl side, *3 side chain or, on linkers, in order; H or OH if unused. Where a SMILES comes first, the peptide text is derived from it. Bridges are numbered along the chain shown (N, C = ends). Roman numbers before positions name the chains, in order. [ ]: non-standard residue; d: D form. Actinocin(9to1) = Cc1c2oc3c(C)ccc(C(=O)[*:1])c3nc-2c(C(=O)[*:2])c(N)c1=O; NMeV = CN[C@H](C(=O)O)C(C)C; Sar = CNCC(=O)O
reportedEndpoint: AC50

[in] Provide only the value of recorded AC50 for Cc1c2oc3c(C)ccc(C(=O)N[C@@H]4C(=O)N[C@H](C(C)C)C(=O)N5CCC[C@H]5C(=O)N(C)CC(=O)N(C)[C@@H](C(C)C)C(=O)O[C@@H]4C)c3nc-2c(C(=O)N[C@@H]2C(=O)N[C@H](C(C)C)C(=O)N3CCC[C@H]3C(=O)N(C)CC(=O)N(C)[C@@H](C(C)C)C(=O)O[C@@H]2C)c(N)c1=O (I: T[dV]P[Sar][NMeV] / II: T[dV]P[Sar][NMeV]; ester I:1-I:C, II:1-II:C; linker I:N-II:N via Actinocin(9to1))
[out] 1.08 nM (active)
